conditions: in n-butanol, 352.55 K
quantity_kind: solubility (mole fraction)
The reply should be a number, written without any unit.

`COc1cc(NS(=O)(=O)c2ccc(N)cc2)ncn1` yielded solubility (mole fraction) of 0.0029

###

settings: in ethanol, 317.65 K
quantity_kind: solubility (mole fraction)
The reply should be a number, written without any unit.

`COc1cc(NS(=O)(=O)c2ccc(N)cc2)ncn1` yielded solubility (mole fraction) of 0.00109

###

details: in n-propanol, 327.95 K
quantity_kind: solubility (mole fraction)
The reply should be a number, written without any unit.

`COc1cc(NS(=O)(=O)c2ccc(N)cc2)ncn1` yielded solubility (mole fraction) of 0.00102

###

settings: in n-propanol, 308.15 K
quantity_kind: solubility (mole fraction)
The reply should be a number, written without any unit.

`COc1cc(NS(=O)(=O)c2ccc(N)cc2)ncn1` yielded solubility (mole fraction) of 0.00037

###

details: in ethyl acetate, 316.05 K
quantity_kind: solubility (mole fraction)
The reply should be a number, written without any unit.

`COc1cc(NS(=O)(=O)c2ccc(N)cc2)ncn1` yielded solubility (mole fraction) of 0.00146

###

conditions: in methanol, 332.65 K
quantity_kind: solubility (mole fraction)
The reply should be a number, written without any unit.

`COc1cc(NS(=O)(=O)c2ccc(N)cc2)ncn1` yielded solubility (mole fraction) of 0.00284

###

conditions: in acetone, 303.3 K
quantity_kind: solubility (mole fraction)
The reply should be a number, written without any unit.

`COc1cc(NS(=O)(=O)c2ccc(N)cc2)ncn1` yielded solubility (mole fraction) of 0.00849

The reported numbers originate from BigSolDB 2.1.
